Structures can show the parent of a compound that is named as a salt.
ENDPOINT_LABEL: melting point

> print(dat)
                                   molecule  endpoint.label      obs.value
1  COc1cn2nc(OCCCN3CCN(C(c4ccccc4)c4ccccc4)CC3)ccc2n1 [Example 42A]   melting point  144 to 146 °C
2  CCOC(=O)C(C)(C)c1cn2nc(CCCCN3CCN(C(c4ccccc4)c4ccccc4)CC3)ccc2n1 [Example 94A]   melting point  105 to 106 °C
3  CC(C)c1cc2ncnn2nc1SCCCN1CCN(C(c2ccccc2)c2ccccc2)CC1   melting point  137 to 139 °C

Lab note: Cc1nc2ccc(NCCCN3CCC(OC(c4ccccc4)c4ccccc4)CC3)nn2n1 [Example 20A] gave melting point of 119 to 120 °C

Lab note: OC(CNc1ccc2ncnn2n1)CN1CCC(OC(c2ccccc2)c2ccccc2)CC1 (centres unmarked) [Example 115A] gave melting point of 82 to 87 °C

Lab note: Cc1cc2ncnn2nc1OCCCCCCN1CCN(C(c2ccccc2)c2ccccc2)CC1 (as salt: hydrochloride) [Example 51A, Dihydrochloride] gave melting point of 170 to 172 °C

Lab note: Cc1cc2ncnn2nc1OCCOCCN1CCC(OC(c2ccccc2)c2ccccc2)CC1 [Example 53A] gave melting point of 80 to 82 °C

Lab note: CC(C)(C(=O)O)c1cn2nc(NCCN3CCC(OC(c4ccccc4)c4ccccc4)CC3)ccc2n1 [Example 79A] gave melting point of 194 to 198 °C

Lab note: Cc1c(C(C)(C)C(=O)O)nc2ccc(NCCCN3CCC(OC(c4ccccc4)c4ccccc4)CC3)nn12 [Example 138A] gave melting point of 219 to 220 °C

Lab note: c1ccc(C(OC2CCN(c3ccc4ncnn4n3)CC2)c2ccccc2)cc1 [Example 11A] gave melting point of 137 to 139 °C

Lab note: O=C(OCCOc1ccc2ncnn2n1)N1CCN(C(c2ccccc2)c2ccccc2)CC1 [Example 26A] gave melting point of 157 to 159 °C
